System: HS 578T breast
Assay: NCI tumour cell line growth inhibition, 48 h
OBSERVED PROPERTY: TGI

Reference set (5 entries):
MOLECULE	OBSERVED PROPERTY	MEASUREMENT
C(#C[C@@]12CCC[C@@H]1NCO2)c1ccc2c(c1)OCO2	TGI	> 100 µM
CC1=C(C(N)=O)C(c2ccncc2)C(C#N)C(=O)N1 (stereo unspecified)	TGI	> 100 µM
Nc1nc(-c2ccccn2)c(-c2ccc3ncccc3n2)s1	TGI	> 25 µM
COC(=O)[C@@H](C)C[C@H](Cc1ccccc1)NC(=O)c1nc([C@@H](C[C@H](C(C)C)N(C)C(=O)[C@@H](NC(=O)[C@H]2CC(=O)CCN2C)C(C)C)OC(C)=O)sc1C(C)C	TGI	> 3.85 µM
O=C(O)c1ccc2nc(-c3ccccn3)c(-c3ccccn3)nc2c1	TGI	> 100 µM

Consider the record given below.
Looking up CCOC(=O)c1cn2c(n1)sc1cc([N+](=O)[O-])ccc12 , I see its TGI listed as > 100 µM

* * *

System: NCI-H226 lung
Assay: NCI tumour cell line growth inhibition, 48 h
OBSERVED PROPERTY: TGI

Please review the following examples before continuing.
COMPOUND	TGI
O=C1N(c2ccccc2)C2(O)C(=O)c3ccccc3C2(O)N1c1ccccc1 (configuration not stated)	> 100 µM
O=c1ccn([C@@H]2C[C@H](CO)CS(=O)C2)c(=O)[nH]1 (some centres not stated)	> 100 µM
C[C@H]1CC(=O)C[C@@H]2CC[C@@H]3[C@H](CC[C@]4(C)C(OC(=O)c5cccc6c(=O)c7ccccc7[nH]c56)CC[C@@H]34)[C@]21C (some centres not stated)	> 100 µM
CCc1ccc2cc3c(ccc4ccccc43)c3c2c1CC3	> 100 µM
COC(=O)c1nc2n(n1)-c1ccccc1C(=O)N(Cc1ccccc1)C2	> 100 µM
Cc1nnc(NS(=O)(=O)c2ccc(N=Nc3c(O)c(C(=O)O)cc4ccccc34)cc2)s1	> 100 µM
Cc1c(Cl)ccc2[s+]snc12	> 100 µM
C=CN(C(=O)N1CCN(c2cc3c(cc2F)c(=O)c(C(=O)O)cn3C2CC2)CC1)c1nc(-c2ccc(C)cc2)cs1	> 100 µM
NC(C(=O)O)C(O)c1cnc[nH]1 (configuration not stated)	> 100 µM
COC(=O)[C@@H](N1C(=O)c2ccccc2C1=O)C1(C)CC(Cl)=NO1 (some centres not stated)	> 100 µM

response.value for O=C(CNC(=O)c1cccc2ccccc12)Nc1ccccc1Oc1ccc(O)cc1 (field: TGI) = > 25 µM

Quick note, TGI for COc1cc(Nc2nc(NS(=O)(=O)c3cc(C)c(Cl)cc3S)n[nH]2)cc(OC)c1OC landed at > 100 µM

* * *

System: TK-10 renal
Assay: NCI tumour cell line growth inhibition, 48 h; in the data active means GI50 below about 0.43 µM; inactive means the rest
Write down one outcome, taken from class 1 (active), class 0 (inactive)

The following compounds have reported results that may help.
> print(dat)
                                chem.smiles    group
1  FC(F)(F)c1ccc(-c2cnc(-c3nn[nH]n3)nc2NC2CCCCCC2)cc1  class 0
2  COc1ncc(-c2ccc3nc(N)n(-c4ccccc4C(F)(F)F)c(=O)c3c2)cc1S(=O)(=O)Nc1ccc(F)cc1F  class 0
3          CC/C(=C\c1ccc(N(C)C)cc1)c1ccncc1  class 0
4  O=c1c2cc(F)ccc2sc2c(NCCCNCCO)nc3ccc(F)cc3c12  class 0
5          O=c1[nH]c2c(ccc3cnccc32)c2c1CCC2  class 1

Please turn your attention to the following entry.
Give the logged outcome of this assay for the following compound: CN1CC[C@H](N(C)C(=O)N2CC(c3cc(F)ccc3F)=C[C@@]2(CO)c2ccccc2)[C@H](F)C1
class 0
